- system-name: Adrenergic Alpha 1A (Homo sapiens (Human), UniProt P35348)
- Sequence (P35348 whole entry): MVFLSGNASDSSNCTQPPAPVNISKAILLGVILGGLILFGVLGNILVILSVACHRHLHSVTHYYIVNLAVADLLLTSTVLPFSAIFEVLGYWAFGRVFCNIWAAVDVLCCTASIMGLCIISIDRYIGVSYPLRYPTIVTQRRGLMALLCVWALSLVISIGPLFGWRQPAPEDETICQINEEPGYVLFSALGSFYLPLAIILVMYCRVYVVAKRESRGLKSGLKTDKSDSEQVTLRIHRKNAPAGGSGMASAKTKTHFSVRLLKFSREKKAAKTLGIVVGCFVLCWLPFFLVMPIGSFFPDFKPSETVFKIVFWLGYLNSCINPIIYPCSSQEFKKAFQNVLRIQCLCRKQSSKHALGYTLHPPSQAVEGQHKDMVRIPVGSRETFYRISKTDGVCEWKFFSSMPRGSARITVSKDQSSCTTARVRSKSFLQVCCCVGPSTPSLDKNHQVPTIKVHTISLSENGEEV
- assay-protocol: Functional GCPR assay, inhibition, Adrenergic Alpha 1A
- study-conditions: read-out: IC50 (A1A) inhibition in functional GCPR assay
pIC50: −log10 of the molar value.

>  <smiles>
COc1ccc2[nH]cc(CCN(C)Cc3ccccc3OC)c2c1

>  <pIC50>
5.74

$$$$

* * *

- system-name: 5HT2B receptor (Homo sapiens, UniProt P41595)
- Sequence (P41595 whole entry): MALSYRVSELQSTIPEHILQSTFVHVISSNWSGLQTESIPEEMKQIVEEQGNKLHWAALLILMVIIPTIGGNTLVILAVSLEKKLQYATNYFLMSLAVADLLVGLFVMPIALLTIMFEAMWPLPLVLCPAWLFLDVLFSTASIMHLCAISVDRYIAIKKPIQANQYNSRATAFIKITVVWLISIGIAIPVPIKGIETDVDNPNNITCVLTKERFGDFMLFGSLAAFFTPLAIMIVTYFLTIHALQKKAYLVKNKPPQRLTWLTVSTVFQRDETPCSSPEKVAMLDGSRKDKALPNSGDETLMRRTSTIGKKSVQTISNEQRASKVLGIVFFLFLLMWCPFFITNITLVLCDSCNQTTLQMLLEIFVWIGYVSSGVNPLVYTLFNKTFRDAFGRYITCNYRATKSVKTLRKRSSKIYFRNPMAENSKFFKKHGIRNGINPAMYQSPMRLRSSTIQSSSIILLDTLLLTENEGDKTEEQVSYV
- assay-protocol: 5HT2B (IP1) functional agonist assay
- Assay type: cell-based

>  <compound>
CCN(CCc1c[nH]c2ccc(OC)cc12)Cc1ccccc1OC [Example 11]

>  <EC50>
> 10 µM

$$$$
